Listed binders paired with reported CD8 EC50 (nM), STAT5 phosphorylation
measured.target: T1, IL-2R on human primary T cells (human, UniProt P01589 22-272; P14784 27-551; P31785 23-369)
T1 sequence (looked up) 1: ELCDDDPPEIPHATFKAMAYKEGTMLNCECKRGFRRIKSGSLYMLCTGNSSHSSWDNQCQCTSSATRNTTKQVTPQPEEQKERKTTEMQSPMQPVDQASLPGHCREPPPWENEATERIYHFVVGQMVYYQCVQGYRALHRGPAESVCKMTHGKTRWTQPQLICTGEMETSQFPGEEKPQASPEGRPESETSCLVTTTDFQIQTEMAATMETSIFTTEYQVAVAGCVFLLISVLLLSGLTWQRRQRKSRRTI
T1 sequence (looked up) 2: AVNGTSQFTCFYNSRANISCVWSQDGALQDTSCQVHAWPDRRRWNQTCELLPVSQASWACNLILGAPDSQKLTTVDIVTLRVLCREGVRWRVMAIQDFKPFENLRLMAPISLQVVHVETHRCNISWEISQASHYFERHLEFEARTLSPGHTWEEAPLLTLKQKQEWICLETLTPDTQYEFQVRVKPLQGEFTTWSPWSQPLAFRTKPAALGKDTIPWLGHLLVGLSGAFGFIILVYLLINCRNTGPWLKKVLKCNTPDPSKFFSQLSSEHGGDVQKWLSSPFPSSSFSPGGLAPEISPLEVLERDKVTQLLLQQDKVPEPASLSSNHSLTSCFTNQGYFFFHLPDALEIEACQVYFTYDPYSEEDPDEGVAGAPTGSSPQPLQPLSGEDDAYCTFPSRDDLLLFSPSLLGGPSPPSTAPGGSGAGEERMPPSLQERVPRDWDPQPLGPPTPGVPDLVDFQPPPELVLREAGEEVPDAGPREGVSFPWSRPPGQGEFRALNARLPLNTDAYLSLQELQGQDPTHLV
T1 sequence (looked up) 3: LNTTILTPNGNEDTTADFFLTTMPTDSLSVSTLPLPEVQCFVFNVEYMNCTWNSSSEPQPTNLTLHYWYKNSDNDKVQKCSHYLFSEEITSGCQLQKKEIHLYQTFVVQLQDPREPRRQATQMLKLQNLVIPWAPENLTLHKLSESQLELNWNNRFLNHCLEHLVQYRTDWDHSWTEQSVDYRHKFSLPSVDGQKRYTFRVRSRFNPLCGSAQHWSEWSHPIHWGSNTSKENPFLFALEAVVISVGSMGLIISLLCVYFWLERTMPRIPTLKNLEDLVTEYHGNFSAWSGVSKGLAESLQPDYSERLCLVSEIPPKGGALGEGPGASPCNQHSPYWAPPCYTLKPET
protocol.description: cell-based or functional assay
Number plus unit, in that order.

Example cases with answers are listed next.
[[record]]
binder = "SEQ ID NO 38 (ligand) APTSSSTKKTQLQLEHLLLDLQMILNGINNYKNPKLTRMLTFKFYMPKKATELKHLQCLEEELKPLEEALRLAPSKNFHLRPRDLISDINVIVLELKGSETTFMCEYADETATIVEFLNRWITFSQSIISTLT"
recorded_value = "10000 nM"

[[record]]
binder = "SEQ ID NO 33 (ligand) APTSSSTKKTQLQLEHLLLDLQMILNGINNYKNPKLTRMLTFKFYMPKKATELKHLQCLEEELKPLEEVLNLAPSKNFHLRPRDLISDINVIVLELKGSETTFMCEYADETATIVEFLNRWITFSQSIISTLT"
recorded_value = "1000 nM"

[[record]]
binder = "SEQ ID NO 15 (ligand) APTSSSTKKTQLQLEHLLLDLQMILNGINNHKNPRLTRMLTFKFYMPKKATELKHLQCLEEELKPLEEVLRLAPSKNFHLRPRDLISNINVIVLELKGSETTFMCEYADETATIVEFLNRWITFSQSIISTLT"
recorded_value = "28.4 nM"


Read the entry SEQ ID NO 29 (ligand) APTSSSTKKTQLQLEHLLLDLQMILNGINNHKNPRLTRMLTFKFYMPKKATELKHLQCLEEELKPLEEVLNLAPSKNFHLRPRDLISNINVIVLELKGSETTFMCEYADETATIVEFLNRWITFSTSIISTLT and write its reported CD8 EC50 (nM), STAT5 phosphorylation.
10000 nM

Give a short answer stating reported CD8 EC50 (nM), STAT5 phosphorylation for SEQ ID NO 35 (ligand) APTSSSTKKTQLQLEHLLLDLQMILNGINNHKNPKLTRMLTFKFYMPKKATELKHLQCLEEELKPLEEVLNLAPSKNFHLRPRDLISDINVIVLELKGSETTFMCEYADETATIVEFLNRWITFSQSIISTLT .
10000 nM

Assign CD8 EC50 (nM), STAT5 phosphorylation to the following record: SEQ ID NO 28 (ligand) APTSSSTKKTQLQLEHLLLDLQMILNGINNHKNPRLTRMLTFKFYMPKKATELKHLQCLEEELKPLEEVLNLAPSKNFHLRPRDLISDINVIVLELKGSETTFMCEYADETATIVEFLNRWITFSQSIISTLT
4000 nM

Recall and state the measured CD8 EC50 (nM), STAT5 phosphorylation for SEQ ID NO 14 (ligand) APTSSSTKKTQLQLEHLLLDLQMILNGINNHKNPRLTRMLTFKFYMPKKATELKHLQCLEEELKPLEEVLNLAPSKNFHLRPRDLISNINVIVLELKGSETTFMCEYADETATIVEFLNRWITFSQSIISTLT .
372 nM
